Target: Cystic fibrosis transmembrane conductance regulator (Homo sapiens)
Assay: Half-Maximal effective concentration of compound required to stimulate of wild type-CFTR activity in the presence of 1 uM Fsk
Sequence (P13569 whole entry): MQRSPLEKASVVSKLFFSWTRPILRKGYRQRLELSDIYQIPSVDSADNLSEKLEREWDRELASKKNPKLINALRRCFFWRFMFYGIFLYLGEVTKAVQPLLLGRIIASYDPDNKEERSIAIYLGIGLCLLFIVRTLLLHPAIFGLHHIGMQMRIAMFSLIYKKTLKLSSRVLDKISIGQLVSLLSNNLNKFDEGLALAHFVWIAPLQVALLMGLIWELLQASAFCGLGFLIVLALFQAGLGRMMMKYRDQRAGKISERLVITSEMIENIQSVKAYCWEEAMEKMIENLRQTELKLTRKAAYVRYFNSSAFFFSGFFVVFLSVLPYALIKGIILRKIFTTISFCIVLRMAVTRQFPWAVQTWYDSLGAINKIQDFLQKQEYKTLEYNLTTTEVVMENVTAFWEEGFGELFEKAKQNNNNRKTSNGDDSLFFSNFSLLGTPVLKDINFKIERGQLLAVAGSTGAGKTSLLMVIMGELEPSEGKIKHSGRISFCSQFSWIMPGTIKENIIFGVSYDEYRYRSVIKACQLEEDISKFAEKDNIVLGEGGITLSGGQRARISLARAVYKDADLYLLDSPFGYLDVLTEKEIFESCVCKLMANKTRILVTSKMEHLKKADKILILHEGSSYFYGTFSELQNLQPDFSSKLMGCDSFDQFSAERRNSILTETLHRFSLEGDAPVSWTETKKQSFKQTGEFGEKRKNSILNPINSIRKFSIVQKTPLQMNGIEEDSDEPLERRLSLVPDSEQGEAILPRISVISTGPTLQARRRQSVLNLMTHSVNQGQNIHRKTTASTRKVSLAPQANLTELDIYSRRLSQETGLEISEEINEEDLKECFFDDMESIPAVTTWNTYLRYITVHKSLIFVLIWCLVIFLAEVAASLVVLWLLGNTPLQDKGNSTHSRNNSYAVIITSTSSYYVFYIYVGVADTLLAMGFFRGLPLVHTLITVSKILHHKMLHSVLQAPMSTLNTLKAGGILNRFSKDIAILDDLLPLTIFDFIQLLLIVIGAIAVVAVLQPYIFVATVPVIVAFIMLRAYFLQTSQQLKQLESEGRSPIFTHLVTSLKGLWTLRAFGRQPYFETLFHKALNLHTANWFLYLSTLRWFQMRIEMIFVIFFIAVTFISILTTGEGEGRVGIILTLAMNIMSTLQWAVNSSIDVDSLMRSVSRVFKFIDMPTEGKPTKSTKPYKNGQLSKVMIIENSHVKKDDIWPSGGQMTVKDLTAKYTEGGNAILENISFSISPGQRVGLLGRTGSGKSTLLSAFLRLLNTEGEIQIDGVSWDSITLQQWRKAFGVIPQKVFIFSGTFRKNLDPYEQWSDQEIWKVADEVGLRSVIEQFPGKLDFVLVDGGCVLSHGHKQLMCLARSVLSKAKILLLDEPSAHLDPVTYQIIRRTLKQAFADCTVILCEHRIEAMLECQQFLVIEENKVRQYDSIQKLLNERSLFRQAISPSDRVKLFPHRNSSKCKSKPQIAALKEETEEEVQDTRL
measured.endpoint: pEC50
Answers are plain numbers, as −log10 of the molar value.

Quick one: pEC50 for CC(C)Cc1c(O)c2cccc(Cl)c2[n+]2ccccc12 ?
4.59

Batch: pEC50 for all items listed.
1. CCCCCc1c(O)c2cccc(Cl)c2[n+]2ccccc12
2. CCCCc1c(O)c2cccc(Cl)c2[n+]2ccccc12
3. Oc1cc2cccc[n+]2c2c(Cl)cccc12
4. CCCc1c(O)c2cccc(Cl)c2[n+]2ccccc12
5. CCOC(=O)c1c(O)c2cccc(F)c2[n+]2ccccc12
6. CCCCc1c(O)c2c(Cl)cccc2[n+]2ccccc12
7. Oc1cc2cccc[n+]2c2cccc(Cl)c12

[4.68, 4.63, 3.85, 4.27, 4.15, 5.77, 3.84]

====

Target: Cystic fibrosis transmembrane conductance regulator (Homo sapiens)
Assay: Percent activation of wild type CFTR dependent efflux was determined by measuring the rate of iodide [125I]- efflux from transfected CHO cells
Type: functional, cell-based
Set-up: concentration or dose not given beside the values
Sequence (P13569 whole entry, looked up): as the sequence (P13569 whole entry) above
measured.endpoint: Activation

These solved cases illustrate the format of a correct answer.
What value of Activation on Cystic fibrosis transmembrane conductance regulator (Homo sapiens) does CCCCc1c(O)c2cccc(Cl)c2[n+]2ccccc12 have?
45%

What value of Activation on Cystic fibrosis transmembrane conductance regulator (Homo sapiens) does Oc1cc2cccc[n+]2c2c(F)cccc12 have?
< 5%

What value of Activation on Cystic fibrosis transmembrane conductance regulator (Homo sapiens) does Oc1cc2cccc[n+]2c2cc(F)ccc12 have?
16%

Batch: Activation for all items listed.
1. Nc1cc2cccc[n+]2c2cccc(Cl)c12
2. Oc1cc2cccc[n+]2c2ccc(F)cc12
3. Oc1cc2cccc[n+]2c2cc(Cl)ccc12
4. CCOC(=O)c1c(O)c2cccc(F)c2[n+]2ccccc12
5. Nc1cc2[n+](c3cccc(Cl)c13)CCc1c-2[nH]c2ccccc12
6. Oc1cc2cccc[n+]2c2ccc(Cl)cc12
7. CCOC(=O)c1c(O)c2cc(F)ccc2[n+]2ccccc12
8. CC(C)Cc1c(O)c2cccc(Cl)c2[n+]2ccccc12

1. < 5%
2. 11%
3. < 5%
4. 37%
5. 30%
6. 18%
7. < 5%
8. 26%

Batch: Activation for all items listed.
1. CCCCCc1c(O)c2cccc(Cl)c2[n+]2ccccc12
2. Oc1cc2cccc[n+]2c2cccc(F)c12
3. Cc1c(O)c2cccc(Cl)c2[n+]2ccccc12
4. Nc1cc2[n+](c3ccc(Cl)cc13)CCc1c-2[nH]c2ccccc12
5. Oc1c(-c2ccccc2)c2cccc[n+]2c2c(Cl)cccc12
6. Oc1cc2cccc[n+]2c2c(Cl)cccc12
7. CCCc1c(O)c2cccc(Cl)c2[n+]2ccccc12
8. CCCCc1c(O)c2c(Cl)cccc2[n+]2ccccc12

1. 38%
2. < 5%
3. 19%
4. 6%
5. 6%
6. 24%
7. 32%
8. 33%

====

Give pEC50 for every item shown.
Molecular target: Cystic fibrosis transmembrane conductance regulator (Homo sapiens, UniProt P13569, G551D)
Sequence (P13569 whole entry G551D): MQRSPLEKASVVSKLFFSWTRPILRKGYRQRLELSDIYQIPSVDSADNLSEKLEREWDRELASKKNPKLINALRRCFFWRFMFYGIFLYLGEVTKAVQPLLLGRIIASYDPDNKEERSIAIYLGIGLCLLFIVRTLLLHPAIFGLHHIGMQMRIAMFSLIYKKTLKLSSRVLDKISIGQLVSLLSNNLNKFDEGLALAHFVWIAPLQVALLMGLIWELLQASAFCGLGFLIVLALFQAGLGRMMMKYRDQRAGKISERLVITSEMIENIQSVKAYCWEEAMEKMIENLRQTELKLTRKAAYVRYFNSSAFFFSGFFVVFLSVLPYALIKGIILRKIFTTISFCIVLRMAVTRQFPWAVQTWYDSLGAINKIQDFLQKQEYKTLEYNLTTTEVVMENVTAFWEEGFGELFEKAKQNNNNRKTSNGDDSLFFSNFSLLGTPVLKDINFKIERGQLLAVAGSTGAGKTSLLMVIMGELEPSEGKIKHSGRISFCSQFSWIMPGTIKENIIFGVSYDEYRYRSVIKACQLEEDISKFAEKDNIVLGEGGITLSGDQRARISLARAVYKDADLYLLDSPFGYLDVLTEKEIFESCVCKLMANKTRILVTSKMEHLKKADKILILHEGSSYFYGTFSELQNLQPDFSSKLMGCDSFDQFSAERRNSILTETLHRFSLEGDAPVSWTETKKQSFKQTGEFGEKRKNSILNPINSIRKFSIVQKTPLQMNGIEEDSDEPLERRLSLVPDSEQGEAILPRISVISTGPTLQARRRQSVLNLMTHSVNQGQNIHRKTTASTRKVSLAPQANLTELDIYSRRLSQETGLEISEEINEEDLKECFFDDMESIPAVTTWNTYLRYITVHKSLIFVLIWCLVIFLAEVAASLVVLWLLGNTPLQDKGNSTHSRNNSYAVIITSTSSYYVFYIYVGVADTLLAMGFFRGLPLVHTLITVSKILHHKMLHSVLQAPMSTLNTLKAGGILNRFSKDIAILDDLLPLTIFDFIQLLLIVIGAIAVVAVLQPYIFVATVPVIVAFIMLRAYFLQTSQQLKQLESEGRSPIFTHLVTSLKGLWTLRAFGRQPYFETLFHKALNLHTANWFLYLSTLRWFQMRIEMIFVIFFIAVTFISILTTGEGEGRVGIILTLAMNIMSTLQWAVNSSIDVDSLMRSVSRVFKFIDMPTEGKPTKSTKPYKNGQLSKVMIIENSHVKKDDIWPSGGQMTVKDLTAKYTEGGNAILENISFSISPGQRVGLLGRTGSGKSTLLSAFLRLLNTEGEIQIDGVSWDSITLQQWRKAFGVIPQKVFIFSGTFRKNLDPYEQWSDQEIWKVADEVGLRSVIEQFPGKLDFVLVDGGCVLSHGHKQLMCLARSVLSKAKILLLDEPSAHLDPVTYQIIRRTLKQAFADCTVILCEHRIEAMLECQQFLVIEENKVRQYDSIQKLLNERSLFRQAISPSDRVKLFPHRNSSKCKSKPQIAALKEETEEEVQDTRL
Experiment: Half-Maximal effective concentration of compound required to stimulate of G551D-CFTR activity in the presence of 10 uM Fsk
Numbers only, as −log10 of the molar value.

These solved cases illustrate the format of a correct answer.
Quick one: pEC50 for CCCCc1c(O)c2c(Cl)cccc2[n+]2ccccc12 ?
6.12

Quick one: pEC50 for CCCCCc1c(O)c2cccc(Cl)c2[n+]2ccccc12 ?
4.70

Quick one: pEC50 for CCCc1c(O)c2cccc(Cl)c2[n+]2ccccc12 ?
4.32

Batch: pEC50 for all items listed.
1. CCOC(=O)c1c(O)c2cccc(F)c2[n+]2ccccc12
2. CCCCc1c(O)c2cccc(Cl)c2[n+]2ccccc12
3. CC(C)Cc1c(O)c2cccc(Cl)c2[n+]2ccccc12

[4.02, 4.47, 4.49]
